Recorded values, source PubChem BioAssay AID501.

Entries and their inhibition values follow.
# testSystem: Cathepsin S (Homo sapiens) (UniProt P25774)
# Sequence (P25774 115-331 limits assumed): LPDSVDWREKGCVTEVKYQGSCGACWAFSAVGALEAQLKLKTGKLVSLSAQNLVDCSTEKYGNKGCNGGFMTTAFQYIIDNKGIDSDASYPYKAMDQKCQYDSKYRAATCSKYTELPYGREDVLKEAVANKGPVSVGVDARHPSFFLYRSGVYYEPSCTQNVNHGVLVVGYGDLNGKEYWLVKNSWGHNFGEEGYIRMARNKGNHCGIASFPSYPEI
# procedureDetails: blockers of CTSS protease activity – biochemical, compound mixtures (AID 501);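 also: 0% = enzyme without compound and 100% = blank without enzyme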
# experimentalSetup: recombinant cathepsin S, AMC dipeptide fluorescence, pooled mixtures; active compounds read high;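 tested at 5 µM per compound within 10-compound mixtures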
In all, about 62,000 compounds went through this assay and about 35 (0.06%) were called active. The entries come from a sample that favours actives as a whole.

COc1ccc(-c2cc3n(n2)CCc2nc4ccccc4n2-3)cc1; -5.35% (inactive)
CCn1cc(C(=O)NCc2ccc(OC)cc2OC)c(=O)c2ccc(C)nc21; 0.185% (inactive)
CC1(C)SC2c3ccccc3C(=O)N2[C@@H]1C(=O)NCc1ccco1 (stereo not given in full); -3.88% (inactive)
CC(=O)Nc1nc(C)c(Cc2ccccc2)c(=O)[nH]1; -3.33% (inactive)

Entry under review: Cc1ccsc1C(C(=O)NC1CCCCC1)N(C(=O)Cc1cccs1)C1CC1 (stereo not given) . Reported inhibition?
6.71% (inactive)

Next record, please: COCCCn1c(CCC(=O)O)ccc1-c1ccc(F)cc1
-19.4% (inactive)

And the next one, CCOC(=O)C(C)Oc1cccc2c(=O)n(CC(=O)N3CCc4ccccc43)ccc12 (stereo not given) ?
-6.21% (inactive)

What do you get for Cc1cc(=O)[nH]c(SCC(=O)N2c3ccccc3CC2C)n1 (stereo not given) ?
33.4% (inactive)

Same question for CCOc1ccccc1Nc1nnc(SCC(=O)Nc2cc(C)on2)s1 please.
8.96% (inactive)

Note, next up: CCN(CC)S(=O)(=O)c1ccc2nc(CSc3nnnn3-c3ccc(O)cc3)[nH]c2c1
-6.33% (inactive)

What about this compound? CCc1ccccc1NC(=O)CSc1nnc([C@@H](NC(=O)OC(C)(C)C)C(C)C)o1
9.29% (inactive)

Follow-up item: Cc1cccc(N2CCN(C(=O)C3CCN(S(=O)(=O)c4cnc[nH]4)CC3)CC2)c1C
-2.09% (inactive)

And for COC(=O)CN(c1nc(C)c(Cl)c(OC)n1)S(=O)(=O)c1ccc(C)cc1 ?
3.91% (inactive)

And then Cc1ccccc1N1CC(c2nc3ccccc3[nH]2)CC1=O (stereo not given) , what is it?
-1.51% (inactive)

Can you handle Cc1cc(C)nc(SCc2ccccc2C#N)n1 next?
-2.31% (inactive)

How about Cc1noc(NS(=O)(=O)c2ccc(N3CC(O)=C(c4ccccc4)C3=N)cc2)c1C ?
-12.9% (inactive)

Same question for O=C(NCCCN1CCOCC1)c1cc(-c2ccc(Cl)cc2)on1 please.
-0.13% (inactive)

Also need Nc1nnc(C2CCCC2)s1 , thanks.
14.3% (inactive)

* * *

# testSystem: Cathepsin S (Homo sapiens) (UniProt P25774)
# procedureDetails: blockers of CTSS protease activity – biochemical, compound mixtures (AID 501);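 also: 0% = enzyme without compound and 100% = blank without enzyme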
# experimentalSetup: recombinant cathepsin S, AMC dipeptide fluorescence, pooled mixtures; active compounds read high;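 tested at 5 µM per compound within 10-compound mixtures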
Screen size: about 62,000 compounds; about 35 (0.06%) were called active. The entries come from a sample that favours actives as a whole.
readoutLabel: inhibition (%)
# value in %; strip the unit string

Look over these answered cases.
O=C(C1CCN(CC2CCCCC2)CC1)N1CCCC1; -3
CCOC(=O)C1CCCN(C(=O)Cn2ncc3c(=O)oc4ccc(C)cc4c32)C1 (stereo not given); 7.33
CCOC(=O)c1sc(N(Cc2ccccc2)C(=O)CN2C(=O)CN(C)C2=O)nc1C; -1.84
COc1cccc(N(CC(=O)NC2CCCC2)C(=O)Cn2nnc(-c3ccc(C)cc3)n2)c1; -32.1
CC(=O)Nc1cccc(NC(=O)c2c(-c3ccccc3)noc2C)c1; -5.8

// returns reported inhibition for input Cc1ccc(S(=O)(=O)NCc2cn3ccsc3n2)c(C)c1
-2.17

Another compound to check: CC(=O)NCCc1ccc(S(=O)(=O)N(C)C2CCS(=O)(=O)C2)cc1 (stereo not given)
30

Same lookup for O=S(=O)(NCCNS(=O)(=O)c1ccccc1)c1ccccc1 , please.
-7.43

Item: CCOC(=O)C1=C(CC)Nc2ccccc2N=C1NC(=O)c1cccc(S(=O)(=O)N2CCCC2)c1
-5.2

Next: C=CCn1c(SCc2cc(C(=O)OC)c(C)o2)nnc1-c1ccncc1
-3.76

* * *

Below is a list of entries, each paired with its recorded inhibition value.
# testSystem: Cathepsin S (Homo sapiens) (UniProt P25774)
# procedureDetails: blockers of CTSS protease activity – biochemical, compound mixtures (AID 501);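 also: 0% = enzyme without compound and 100% = blank without enzyme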
# experimentalSetup: recombinant cathepsin S, AMC dipeptide fluorescence, pooled mixtures; active compounds read high;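 tested at 5 µM per compound within 10-compound mixtures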
In all, about 62,000 compounds went through this assay and about 35 (0.06%) were called active. This is one part of a sample in which actives are shown more often than they occur.
Kindly provide the numeric value in % only, without the unit symbol.

Fc1ccc2[nH]c3c(N4CCN(Cc5ccc6c(c5)OCO6)CC4)ncnc3c2c1; -6.06
COc1ccc(N(CC(=O)NC(C)(C)C)C(=O)c2ccco2)cc1; 10.2
Cc1ccc(-c2noc(CSc3nnc(-c4ccccc4)n3C)n2)cc1; -4.08

Request - read-out inhibition | tested on Cathepsin S (Homo sapiens) (UniProt P25774) | compound Cc1cc(=O)n2nc(N3CCCC(C(=O)NCCC4=CCCCC4)C3)sc2n1 (stereo unspecified)
19.8

Ok, now CC12COC3(C(=O)Nc4ccc(Cl)cn4)CC1CCC32C (stereo unspecified)
-6.89

Quick one: CC1(C)CC(=O)C(C=NCc2cccnc2)=C(O)C1
-6.24

Then what about the compound CC(NC(=O)c1ccco1)C(=O)Nc1nc(-c2ccccn2)cs1 (stereo unspecified) ?
12

Likewise for Cc1nc(N2CCCC2C(=O)O)c2oc3ccccc3c2n1 (stereo unspecified) ?
8.31

Item: CC(C)n1c(SCC(=O)Nc2ccccc2N2CCCCC2)nc2c1c(=O)n(C)c(=O)n2C
-0.72

Follow-up entry: CCN(CC)S(=O)(=O)c1ccc(NC(=O)CN(c2cccc(F)c2)S(C)(=O)=O)cc1
-8.46

For Cc1nn(C)c(C)c1S(=O)(=O)N1CCc2ccccc21 then?
-5.94

* * *

# testSystem: Cathepsin S (Homo sapiens)
# procedureDetails: blockers of CTSS protease activity – biochemical, compound mixtures (AID 501);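 also: 0% = enzyme without compound and 100% = blank without enzyme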
# experimentalSetup: recombinant cathepsin S, AMC dipeptide fluorescence, pooled mixtures; active compounds read high;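 tested at 5 µM per compound within 10-compound mixtures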
The whole screen tested about 62,000 compounds, of which about 35 (0.06%) were called active. The sample as a whole holds a higher share of actives than the screen did.
readoutLabel: inhibition (%)
Dear colleague, please return just the value in %, with no unit written.

Reference set, count: 5
CCCCc1cc(=O)oc2cc(C)cc(OCc3nn[nH]n3)c12; 1.43
O=C(NCc1ccco1)c1ccc(CS(=O)(=O)Cc2ccc(F)cc2)o1; -5.21
O=C(CCCn1c(=O)[nH]c2cc(Cl)ccc2c1=O)NCCN1CCN(c2ccccc2)CC1; 13.6
COc1ccc(C)cc1NC(=O)c1[nH]c(C)c(C(C)=O)c1C; -3.92
Cc1nc(NC(=O)CCC(=O)O)sc1C(=O)N(C)C; -4.56

Kindly review the next compound as well.
Fill in the blank: the reported inhibition of COC(CCN(C)C)(c1ccccc1)c1ccccc1 is ____.
-4.38

* * *

# testSystem: Cathepsin S (Homo sapiens) (UniProt P25774)
# procedureDetails: blockers of CTSS protease activity – biochemical, compound mixtures (AID 501);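 also: 0% = enzyme without compound and 100% = blank without enzyme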
# experimentalSetup: recombinant cathepsin S, AMC dipeptide fluorescence, pooled mixtures; active compounds read high;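 tested at 5 µM per compound within 10-compound mixtures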
The campaign covered roughly 62,000 compounds. About 35 (0.06%) were called active. Many of the other results were omitted from the sample, so actives are more common in it than they were.
The entries below are paired with their reported inhibition.
Unit % implied. Number only.

Guide cases for inhibition, answers given:
Cn1c(=O)[nH]c(=O)c2c1nc(CN(Cc1ccccc1)Cc1ccccc1)n2CCN1CCOCC1; 2.01
Cc1c2cnn(-c3ccccc3)c(=O)c2c(C)n1CCCC(=O)N1CCN(C)CC1; -3.9
COc1ccc(CCn2c(NCCCN3CCOCC3)nc3c2c(=O)[nH]c(=O)n3C)cc1; 5.43
O=C(NCCCN1CCN(Cc2ccccc2)CC1)C1CCN(S(=O)(=O)N2CCCC2)CC1; 17.9
Cc1nn(-c2ccccc2)c2sc(C(=O)N(Cc3ccco3)C(C)C(=O)NC(C)(C)C)cc12 (configuration not stated); 13.8
Cc1cc(Nc2cccc(C)c2C)n2ncnc2n1; -1.92

Request - read-out inhibition | tested on Cathepsin S (Homo sapiens) (UniProt P25774) | compound Cc1cnc(NC(=O)CSc2nnc(-c3ccccc3)n2Cc2ccccc2)s1
11.8

Query Cn1c(C(=O)NCCN2CCc3ccccc3C2)cc2c(=O)[nH]c3ccccc3c21 next
45.6

Also COC(=O)C1(S(=O)(=O)C2(C(=O)OC)CCCC2)CCCC1 , if possible.
-5.82

// same read-out, input: CCOC(=O)c1c(C)c(C(=O)NCCc2ccc(S(N)(=O)=O)cc2)c(C)n1CC
-0.765

Lookup O=C(CN(c1ccc2c(c1)OCCO2)S(=O)(=O)c1ccccc1)Nc1ccc2c(c1)OCO2
8.94

Next: O=C(O)C1C2C=CC(C2)C1C(=O)N1CCN(CCO)CC1 (configuration not stated)
3.18

For Cn1c(C(=O)NCCc2ccsc2)cc2c(=O)n(C)c3ccccc3c21 then?
-2.9

And for Cc1cccc(N2CCN(C(=O)c3cc4c(=O)[nH]c5ccccc5c4n3C)CC2)c1C ?
16.8

And CCNS(=O)(=O)c1ccc(NC(=O)Nc2cccc(C(F)(F)F)c2)cc1 ?
-6.53

Similarly, CC1=C(C(=O)OCc2ccccc2)C(c2ccco2)n2ncnc2N1 (configuration not stated) ?
6.81

Also O=C(c1ccc(S(=O)(=O)N2CCOCC2)cc1)N1CCN(c2ccccc2)CC1 , if possible.
-24.7
